Biological target: Human 11β-HSD1 (Homo sapiens, UniProt P28845)
Sequence (P28845 whole entry): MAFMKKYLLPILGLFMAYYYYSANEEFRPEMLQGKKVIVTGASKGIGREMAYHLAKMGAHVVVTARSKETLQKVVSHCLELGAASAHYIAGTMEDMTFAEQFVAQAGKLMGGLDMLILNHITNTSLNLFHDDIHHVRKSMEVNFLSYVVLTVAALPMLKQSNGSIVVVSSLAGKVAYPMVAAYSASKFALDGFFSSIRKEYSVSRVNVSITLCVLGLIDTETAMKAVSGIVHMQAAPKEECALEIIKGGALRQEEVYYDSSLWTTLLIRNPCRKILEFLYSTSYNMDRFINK
Assay: 11β-HSD1 HTRF assay (human liver microsome fractions, cortisol by HTRF)
Format: biochemical
Conditions: 10 μM compound; human liver microsomes
The entries below are paired with their reported inhibition at 10 µM.

Answered cases to consult:
compound="O=C(C[S+]([O-])Cc1ccc(Cl)cc1)C12CC3CC(CC(C3)C1)C2 (stereo not drawn)" data_value="> 60%"
compound=COc1ccc(NC(=O)C23CC4CC(CC(C4)C2)C3)cn1 data_value="> 60%"

Any idea what its inhibition at 10 µM is? The compound is O=C(NCCCn1ccnc1)C12CC3CC(CC(C3)C1)C2 20 to 60%

// returns reported inhibition at 10 µM for input Cc1ccc(S(=O)(=O)CC(=O)C23CC4CC(CC(C4)C2)C3)cc1 > 60%

What does the record list as inhibition at 10 µM for O=C(CC12CC3CC(CC(C3)C1)C2)NCCc1cccs1 ? > 60%

Returns the measured inhibition at 10 µM for the input compound. Input: O=C(CS(=O)(=O)Cc1ccc(Cl)cc1)C12CC3CC(CC(C3)C1)C2 > 60%
